# Run Description: soluble fraction after stress (log2 fold change); higher = more stays soluble; pooled small domains, quantitative proteomics
# Assay Context: stress: 50 degC
Measure: soluble fraction (log2)
// response body must contain only the number

Solved entries:
HMLENIVFTNKFKNKRLDVLLVDMKLVSSRQKAVSLIMRGNVFVEEERADKPGKIIKLNQTISLKK; -2.6
HMKNQIGFKIKNARRKASISQADLSAKLGISSSYLNLIESGKRNVNVDLLLKVSDVLNIELKDLSK; -0.781
HMGSYIGEAKAKEIALSHAGVSASQATFVRSQFEYDDGRAVYDVDFWSGNKEYDYEIDAKSGTIVSYDFD; -0.398

Query :: Consider the sequence HMDNEVTIAVQVNGKLRDKLIVALDTPNEKIEQLALALPKVIQNTSGLTVRKVIVIPNRLVNIVA and give its measured soluble fraction (log2).
Result :: -0.171
